target: human mGluR5 (Homo sapiens); assay: Cell-based functional Ca2+ mobilization assay (FDSS), potentiation of glutamate EC20 response; conditions: H10H cell-line (HEK, recombinant human mGluR5); glutamate EC20; maximum average response at a single concentration, percent of maximal glutamate response
Sequence (P41594 21-1180 isoform P41594-2 limits assumed): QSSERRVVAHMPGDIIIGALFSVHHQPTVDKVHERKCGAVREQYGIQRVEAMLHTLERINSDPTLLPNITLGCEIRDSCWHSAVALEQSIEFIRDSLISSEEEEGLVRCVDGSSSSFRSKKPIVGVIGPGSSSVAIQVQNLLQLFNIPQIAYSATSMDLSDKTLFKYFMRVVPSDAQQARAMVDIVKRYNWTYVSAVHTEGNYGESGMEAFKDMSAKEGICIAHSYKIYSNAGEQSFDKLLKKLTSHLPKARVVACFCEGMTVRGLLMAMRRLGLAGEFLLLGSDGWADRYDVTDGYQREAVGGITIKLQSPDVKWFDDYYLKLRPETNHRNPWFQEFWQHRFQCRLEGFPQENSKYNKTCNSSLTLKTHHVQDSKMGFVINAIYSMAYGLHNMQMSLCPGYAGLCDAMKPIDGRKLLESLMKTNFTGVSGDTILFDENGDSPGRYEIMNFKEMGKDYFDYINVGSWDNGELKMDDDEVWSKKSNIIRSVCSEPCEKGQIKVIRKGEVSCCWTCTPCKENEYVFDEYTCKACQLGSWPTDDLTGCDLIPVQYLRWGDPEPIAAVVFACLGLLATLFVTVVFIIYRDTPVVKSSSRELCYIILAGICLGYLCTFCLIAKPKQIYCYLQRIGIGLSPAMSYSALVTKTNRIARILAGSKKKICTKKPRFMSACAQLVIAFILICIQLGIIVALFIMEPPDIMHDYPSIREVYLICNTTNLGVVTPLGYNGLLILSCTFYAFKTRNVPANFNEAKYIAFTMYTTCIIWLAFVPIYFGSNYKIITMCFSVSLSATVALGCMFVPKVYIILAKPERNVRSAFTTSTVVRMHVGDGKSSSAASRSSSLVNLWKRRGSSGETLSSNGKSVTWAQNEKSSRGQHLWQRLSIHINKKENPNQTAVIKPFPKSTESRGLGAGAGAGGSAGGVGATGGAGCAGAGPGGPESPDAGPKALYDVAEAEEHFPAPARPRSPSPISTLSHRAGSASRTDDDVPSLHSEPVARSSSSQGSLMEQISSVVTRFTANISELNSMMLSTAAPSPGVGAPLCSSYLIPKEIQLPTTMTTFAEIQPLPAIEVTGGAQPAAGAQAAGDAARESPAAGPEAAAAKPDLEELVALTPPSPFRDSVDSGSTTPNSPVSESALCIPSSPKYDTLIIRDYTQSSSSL
I'd appreciate it if you could supply Emax values for the items below.
Value expressed in %; do not type the unit.

Problem: Record request: Emax value, item O=C1c2cc(COc3ccccc3)nn2CCN1Cc1ccc(Cl)cc1
Solution: 65

Problem: Record request: Emax value, item C[C@@H]1Cn2nc(COc3ccccc3)cc2C(=O)N1Cc1ncccc1Cl
Solution: 80

Problem: Record request: Emax value, item O=C1c2cc(COc3ccccc3)nn2CCN1Cc1cccc(F)c1F
Solution: 72.5

Problem: Record request: Emax value, item O=C1c2cc(COc3ccccc3)nn2CCN1Cc1cccnc1
Solution: 63

Problem: Record request: Emax value, item Cc1nc(CN2CCn3nc(COc4ccccc4)cc3C2=O)cs1
Solution: 65

Problem: Record request: Emax value, item CC1CN([C@H](C)c2ccccc2)C(=O)c2cc(COc3ccccc3)nn21 (single isomer, unassigned)
Solution: 68.5

Problem: Record request: Emax value, item COc1cccc(CN2CCn3nc(COc4ccccc4)cc3C2=O)c1Cl
Solution: 75.5

Problem: Record request: Emax value, item C[C@@H]1Cn2nc(COc3ccccn3)cc2C(=O)N1Cc1ccccc1
Solution: 70

Problem: Record request: Emax value, item Cc1ccc(CN2CCn3nc(COc4ccccc4)cc3C2=O)cc1
Solution: 75

Values were extracted from patent US20130345205A1.
